Origin of values: patent US20260285846A1

System name: REV-ERBα LBD (Homo sapiens, UniProt P20393, DEL324-422)
Sequence (P20393 with tags, fused parts or gaps DEL324-422): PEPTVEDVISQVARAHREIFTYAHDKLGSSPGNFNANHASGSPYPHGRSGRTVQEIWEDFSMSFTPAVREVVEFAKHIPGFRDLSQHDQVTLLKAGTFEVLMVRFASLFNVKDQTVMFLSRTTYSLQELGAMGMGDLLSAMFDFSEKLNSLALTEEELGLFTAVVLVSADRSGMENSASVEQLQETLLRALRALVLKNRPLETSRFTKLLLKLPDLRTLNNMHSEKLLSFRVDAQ
Sequence (Q9Y618 2335-2356 partner limits assumed): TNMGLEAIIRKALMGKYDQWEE
Procedure text: biochemical
Test context: FRET assay; 6xHistag-REV-ERBα LBD with FITC-labeled SMRT corepressor peptide; read-out: REVERBα (Agonism of REV-ERBα, EC50)
Could you please report measured EC50 for the items listed next?

Bench note: what EC50 did `CC(C)(C)Cn1cc([C@H](NS(=O)(=O)C2CC2)C(F)(F)F)c2cc(F)c(-c3ncccc3C(F)(F)F)cc21` show?
0.1 to 1 µM

How about this compound: `CC(C)(C)Cn1cc([C@H](NS(=O)(=O)C2CC2)C(F)F)c2cc(F)c(-c3c(C#N)ccnc3C(F)(F)F)cc21`
< 0.1 µM

How about this compound: `N#Cc1cccc(C(F)(F)F)c1-c1nc2c(cc1F)c([C@H](NS(=O)(=O)C1CC1)C(F)F)cn2C1CCC1`
< 0.1 µM

How about this compound: CC(NS(=O)(=O)C1CC1)c1cn(CC(C)(C)C)c2cc(-c3ncccc3C(F)(F)F)c(F)cc12 (single isomer, unassigned) [Compound 18]
< 0.1 µM

How about this compound: `CC(C)(C)Cn1cc([C@H](NS(=O)(=O)N2CC(F)C2)C(F)F)c2cc(F)c(-c3ccccc3C(F)(F)F)cc21`
< 0.1 µM

How about this compound: CC(C)(C)Cn1cc([C@H](NS(=O)(=O)C2CC2)C(F)(F)F)c2cc(F)c(-c3cccnc3C(F)(F)F)cc21 [Compound 8]
0.1 to 1 µM

* * *

Could you please report measured pEC50 for the items listed next?
System name: REV-ERBα LBD (Homo sapiens, UniProt P20393, DEL324-422)
Procedure text: biochemical
Test context: FRET assay; 6xHistag-REV-ERBα LBD with FITC-labeled SMRT corepressor peptide; read-out: REVERBα (Agonism of REV-ERBα, EC50)
pEC50: −log10 of the molar value.

Record O=S(=O)(N[C@@H](c1cn(C2CCC2)c2nc(-c3cc(F)cnc3C(F)(F)F)c(F)cc12)C(F)F)C1CC1 [Compound 150] : what is its pEC50 with REV-ERBα LBD (Homo sapiens, UniProt P20393, DEL324-422)?
> 7.00

How about this molecule: CC(NS(=O)(=O)C1CC1)c1cn(CC(C)(C)C)c2cc(-c3ncccc3C(F)(F)F)c(F)cc12 (single isomer, unassigned) [Compound 17]
6.00 to 7.00

How about this molecule: CC(C)(C)Cn1cc([C@H](NS(=O)(=O)C2CC2)C(F)(F)F)c2cc(F)c(-c3ncccc3C#N)cc21 [Compound 10]
6.00 to 7.00
